Assay: Solubility screening of veldoreotide acetate (10 mg, incremental volumes of medium, USP definition)
Type: physicochemical
Settings: oleic acid, 0.1 ml Freely soluble (0.1 g/ml), 10 mg in Oleic acid
Source text: The solubility of veldoreotide acetate in aqueous media was screened by the following method. […] Following the results of the screening studies, several media were selected for verification studies based on quantitative assessment of the peptide concentration by HPLC (maximal solubility). […]
endpoint_name: solubility

// solubility lookup, key: C[C@@H](O)[C@@H]1NC(=O)[C@H](CCCCN)NC(=O)[C@@H](Cc2c[nH]c3ccccc23)NC(=O)[C@H](Cc2c[nH]c3ccccc23)NC(=O)[C@H](Cc2ccccc2)NC(=O)CCCNC(=O)CCCN(CC(N)=O)C(=O)[C@H](Cc2ccccc2)NC1=O [Veldoreotide Acetate]
< 100 mg/mL

###

Experiment: Solubility screening of veldoreotide acetate (10 mg, incremental volumes of medium, USP definition)
Format: physicochemical
Details: glycerol, 0.1 ml Freely soluble (0.1 g/ml), 10 mg in Glycerol
endpoint_name: solubility

# get_value(readout='solubility', item= C[C@@H](O)[C@@H]1NC(=O)[C@H](CCCCN)NC(=O)[C@@H](Cc2c[nH]c3ccccc23)NC(=O)[C@H](Cc2c[nH]c3ccccc23)NC(=O)[C@H](Cc2ccccc2)NC(=O)CCCNC(=O)CCCN(CC(N)=O)C(=O)[C@H](Cc2ccccc2)NC1=O [Veldoreotide Acetate] )
< 100 mg/mL

###

Assay: in vivo
Parameters: species or system rats
Conditions: HSD:Sprague Dawley SD, rat, sc, 3 mg/kg, Rats Cmax (ng/ml)
endpoint_name: Cmax (µg/mL)
Enter your answer as a number in µg/mL; do not include the unit.

Look up Cmax: C[C@@H](O)[C@@H]1NC(=O)[C@H](CCCCN)NC(=O)[C@@H](Cc2c[nH]c3ccccc23)NC(=O)[C@H](Cc2c[nH]c3ccccc23)NC(=O)[C@H](Cc2ccccc2)NC(=O)CCCNC(=O)CCCN(CC(N)=O)C(=O)[C@H](Cc2ccccc2)NC1=O [Veldoreotide]
0.544

###

Assay: Solubility screening of veldoreotide acetate (10 mg, incremental volumes of medium, USP definition)
Type: physicochemical
Settings: PBS, pH 7.2, 10 mg in PBS pH 7.2; read-out: 0.5 ml Soluble (0.02 g/ml; 20 mg/ml)
endpoint_name: solubility

Which solubility reading was recorded for the compound C[C@@H](O)[C@@H]1NC(=O)[C@H](CCCCN)NC(=O)[C@@H](Cc2c[nH]c3ccccc23)NC(=O)[C@H](Cc2c[nH]c3ccccc23)NC(=O)[C@H](Cc2ccccc2)NC(=O)CCCNC(=O)CCCN(CC(N)=O)C(=O)[C@H](Cc2ccccc2)NC1=O [Veldoreotide Acetate] ?
< 20 mg/mL

###

Assay: Solubility screening of veldoreotide acetate (10 mg, incremental volumes of medium, USP definition)
Type: physicochemical
Conditions: Acetone (USP), 10 ml Slightly soluble (0.001 g/ml; 1 mg/ml), 10 mg in Acetone (USP)
endpoint_name: solubility

Field request: solubility | item: C[C@@H](O)[C@@H]1NC(=O)[C@H](CCCCN)NC(=O)[C@@H](Cc2c[nH]c3ccccc23)NC(=O)[C@H](Cc2c[nH]c3ccccc23)NC(=O)[C@H](Cc2ccccc2)NC(=O)CCCNC(=O)CCCN(CC(N)=O)C(=O)[C@H](Cc2ccccc2)NC1=O [Veldoreotide Acetate]
> 1000 µg/mL
